target: Caspase-1 (Homo sapiens) (UniProt P29466); experiment: Inhibition constant against interleukin-1-beta converting enzyme
Sequence (P29466 120-297 limits assumed): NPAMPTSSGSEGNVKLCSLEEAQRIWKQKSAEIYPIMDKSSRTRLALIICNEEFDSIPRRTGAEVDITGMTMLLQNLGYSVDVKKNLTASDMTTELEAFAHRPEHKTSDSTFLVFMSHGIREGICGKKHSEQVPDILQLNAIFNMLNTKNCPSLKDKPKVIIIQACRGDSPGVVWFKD
Sequence (P29466 317-404 limits assumed): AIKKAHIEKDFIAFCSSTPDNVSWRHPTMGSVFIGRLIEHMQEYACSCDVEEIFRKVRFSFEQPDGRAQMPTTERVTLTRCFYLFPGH
Entries and their measured log10 K obs / 1 follow.
Note the log scale: values are log10 of K obs / 1 expressed in M⁻¹ s⁻¹.

Field log10 K obs / 1 (entry CC(C)[C@H](NC(=O)OCc1ccccc1)C(=O)N1CCC[C@H]1C(=O)N[C@@H](CC(=O)O)C(=O)COc1cc(C(F)(F)F)nn1-c1ccccc1 ) reads 5.06

Reported log10 K obs / 1 of CC(C)[C@H](NC(=O)OCc1ccccc1)C(=O)N1CC[C@H]1C(=O)N[C@@H](CC(=O)O)C(=O)COc1cc(C(F)(F)F)nn1-c1ccccc1 : 4.66

GET /value?item= CC(C)[C@H](NC(=O)OCc1ccccc1)C(=O)N(C)[C@@H](C)C(=O)N[C@@H](CC(=O)O)C(=O)COc1cc(C(F)(F)F)nn1-c1ccccc1 &field=log10 K obs / 1 returns 5.37

====

molecular target: UniProt P29466; assay: Inhibition constant against interleukin-1-beta converting enzyme
observable: K obs / 1 (M⁻¹ s⁻¹)
Only the number, expressed in M⁻¹ s⁻¹, is required.

O=C(O)C[C@H](NC(=O)OCc1ccccc1)C(=O)COc1cc(C(F)(F)F)nn1-c1ccccc1 = 11000
CC(C)[C@@H](C(=O)N[C@@H](C)C(=O)N[C@@H](CC(=O)O)C(=O)COc1cc(C(F)(F)F)nn1-c1ccccc1)N(C)C(=O)OCc1ccccc1 = 8600

Turning now to a further record.
// K obs / 1 value for CC(C)[C@H](NC(=O)OCc1ccccc1)C(=O)N[C@@H](CC(=O)O)C(=O)COc1cc(C(F)(F)F)nn1-c1ccccc1 : 20000
